Test system: E. coli CGSC 5633 (ToIC mutant)
experimental details: MIC, broth microdilution (CLSI), E. coli CGSC 5633
Type: cell-based, Escherichia coli
Set-up: unit not given beside the values
Binary label based on MIC E. coli CGSC 5633 with cut-off 0.5: below gives satisfied, not below gives not satisfied.

Bench note: check whether CCCCc1c(NCc2ccc(F)c(F)c2)nc2nc(N)nc(N)c2c1C shows MIC E. coli CGSC 5633 below 0.5
satisfied

// next record Cc1c(Cc2ccccc2)c(N(C)C2CCCCC2)nc2nc(N)nc(N)c12
satisfied

// next record COc1cc(CN(C)c2nc3nc(N)nc(N)c3c(C)c2C2CCCC2)cc(OC)c1
satisfied

// next record Cc1cc(NCc2cc(C(F)(F)F)cc(C(F)(F)F)c2)nc2nc(N)nc(N)c12
not satisfied

// next record Cc1cc(N2Cc3ccccc3C2)nc2nc(N)nc(N)c12
not satisfied

// next record Cc1cc(NCc2cc(F)cc(C(F)(F)F)c2)nc2nc(N)nc(N)c12
satisfied

----------
System: Escherichia coli ATCC 25922
experimental details: MIC, broth microdilution (CLSI), E. coli ATCC 25922
Format: cell-based
Method: The compounds of Formulas 1-VIII were evaluated as inhibitors of NAD+-dependent DNA ligase inhibitors. Their antimicrobial activity was evaluated against bacteria using the broth microdilution method as described by Clinical Laboratory Standards Institute (formerly NCCLS). […] The lowest concentration of compound which inhibited visual growth of each bacterium, the minimum inhibitory concentration (MIC), was determined.
readout name: MIC E. coli ATCC 25922
Hey, just send me the number, nothing else.

>>> measured_result("CCCc1cc(N(C)C2CCCCC2)nc2nc(N)nc(N)c12")
128
>>> measured_result("Cc1cc(NCc2ccc(F)cc2C(F)(F)F)nc2nc(N)nc(N)c12")
32
>>> measured_result("Cc1c(Cc2ccccc2)c(N(C)C2CCCCC2)nc2nc(N)nc(N)c12")
128
>>> measured_result("Cc1c(Cc2ccccc2)c(NCc2ccc(F)c(F)c2)nc2nc(N)nc(N)c12")
32

Item: COc1cc(CN(C)c2nc3nc(N)nc(N)c3c3c2CCCC3)cc(OC)c1 Test system: Escherichia coli ATCC 25922 Read-out: MIC E. coli ATCC 25922 Value: ?
64

// next record Cc1cc(Nc2ccc3c(c2)OCCCO3)nc2nc(N)nc(N)c12
64

----------
Form field: MIC E. coli ATCC 25922 (one value per entry).
Test system: Escherichia coli ATCC 25922
experimental details: MIC, broth microdilution (CLSI), E. coli ATCC 25922
Type: cell-based

>>> measured_result("Nc1nc(N)c2c3c(c(N4Cc5ccccc5C4)nc2n1)CCCC3 [VII-c]")
">128"
>>> measured_result("COc1cc(CN(C)c2nc3nc(N)nc(N)c3c(C)c2Cc2ccccc2)cc(OC)c1 [II-a]")
">128"

Look up MIC E. coli ATCC 25922 for this compound: Nc1nc(N)c2c3c(c(NCc4ccc(F)c(F)c4)nc2n1)CCCC3 [VII-a]
>128

----------
Tested on: Streptococcus pyogenes ATCC 19615
experimental details: MIC, broth microdilution (CLSI), S. pyogenes
Assay type: cell-based
Form field: MIC S. pyogenes (one value per entry).

For orientation, consider the following solved cases.
>>> measured_result("Cc1cc(NCc2ccc(C(F)(F)F)cc2F)nc2nc(N)nc(N)c12")
4
>>> measured_result("Cc1c(N(C)C2CCCCC2)nc2nc(N)nc(N)c2c1C")
"2 to 8"

Item: Cc1cc(NCc2cc(F)cc(C(F)(F)F)c2)nc2nc([N+](=O)[O-])nc([N+](=O)[O-])c12 Test system: Streptococcus pyogenes ATCC 19615 Read-out: MIC S. pyogenes Value: ?
4

// next record Nc1nc(N)c2c3c(c(N4Cc5ccccc5C4)nc2n1)CCCC3
16

// next record Cc1cc(NCc2ccc3c(c2)OCO3)nc2nc(N)nc(N)c12
8

// next record Cc1cc(N2CCCc3ccccc32)nc2nc(N)nc(N)c12
32

// next record Cc1cc(NCc2ccc(F)cc2)nc2nc(N)nc(N)c12
2

// next record Cc1cc(NCc2cccc(C(F)(F)F)c2F)nc2nc(N)nc(N)c12
4

// next record Nc1nc(N)c2c3c(c(NCc4cc(F)cc(F)c4)nc2n1)CCCC3
8

// next record Nc1nc(N)c2c3c(c(NCc4ccc(F)c(F)c4)nc2n1)CCCC3
32

// next record COc1cc(CN(C)c2nc3nc(N)nc(N)c3c(C)c2Cc2ccccc2)cc(OC)c1
4

// next record Cc1c(Cc2ccccc2)c(N(C)C2CCCCC2)nc2nc(N)nc(N)c12
2

// next record COc1cc(CN(C)c2nc3nc(N)nc(N)c3c(C)c2C2CCCC2)cc(OC)c1
1
